- System: Tau-BiFC cells
- assayText: Cytotoxicity (cell survival rate) in tau-BiFC cells
- testContext: group treated with Forskolin alone = 100%
assayReadout: Cell survival rate (% @ 10 μM) (%)
Enter your answer as a number in %; do not include the unit.

Prompt: Query (molecule): `N#CC(C#N)=NNc1ccc(-c2cnc3ccnn3c2)cc1` ; field requested: Cell survival rate (% @ 10 μM)
Response: 76

Prompt: Query (molecule): `C#Cc1cnc(-c2ccc(NN=C(C#N)C#N)cc2)nc1` ; field requested: Cell survival rate (% @ 10 μM)
Response: 113.9

Prompt: Query (molecule): `Cn1ncc2ccc(NN=C(C#N)C#N)cc21` ; field requested: Cell survival rate (% @ 10 μM)
Response: 111.4

Prompt: Query (molecule): `N#CC(C#N)=NNc1ccc(-c2ncccn2)cc1` ; field requested: Cell survival rate (% @ 10 μM)
Response: 74

Prompt: Query (molecule): `Cn1cc2c(-c3ccc(NN=C(C#N)C#N)cc3)cccc2n1` ; field requested: Cell survival rate (% @ 10 μM)
Response: 120.1

Prompt: Query (molecule): `CN(C)c1ccc(-c2ccc(NN=C(C#N)C#N)cc2)cc1` ; field requested: Cell survival rate (% @ 10 μM)
Response: 69.5

Prompt: Query (molecule): `CN(N=C(C#N)C#N)c1ccc(-c2ncccn2)cc1` ; field requested: Cell survival rate (% @ 10 μM)
Response: 114.8

Prompt: Query (molecule): `Cc1ccnc(-c2ccc(NN=C(C#N)C#N)c(F)c2)n1` ; field requested: Cell survival rate (% @ 10 μM)
Response: 88.3

Prompt: Query (molecule): `N#CC(C#N)=NNc1ccc(-c2cncs2)cc1` ; field requested: Cell survival rate (% @ 10 μM)
Response: 90

Prompt: Query (molecule): `N#CC(C#N)=NNc1ccc(-c2ccc3nccn3c2)cc1` ; field requested: Cell survival rate (% @ 10 μM)
Response: 158.2

Prompt: Query (molecule): `COc1cc(-c2nccc(C)n2)ccc1NN=C(C#N)C#N` ; field requested: Cell survival rate (% @ 10 μM)
Response: 128

Prompt: Query (molecule): `Cc1cncc(C(=O)Nc2nc3ccc(NN=C(C#N)C#N)cc3s2)c1` ; field requested: Cell survival rate (% @ 10 μM)
Response: 156.6

Prompt: Query (molecule): `Cc1ccnc(-c2ccc(NN=C(C#N)C#N)cc2F)n1` ; field requested: Cell survival rate (% @ 10 μM)
Response: 101.3

Prompt: Query (molecule): `Cc1c[nH]c2ncc(NN=C(C#N)C#N)cc12` ; field requested: Cell survival rate (% @ 10 μM)
Response: 120.2

Prompt: Query (molecule): `N#CC(C#N)=NNc1ccc(-n2cccn2)cc1` ; field requested: Cell survival rate (% @ 10 μM)
Response: 100

Prompt: Query (molecule): `COc1c(NN=C(C#N)C#N)cnc2[nH]ccc12` ; field requested: Cell survival rate (% @ 10 μM)
Response: 151.1

Prompt: Query (molecule): `N#CC(C#N)=NNc1ccc2scnc2c1` ; field requested: Cell survival rate (% @ 10 μM)
Response: 111.7

Prompt: Query (molecule): `N#CC(C#N)=NNc1ccc2ncccc2c1` ; field requested: Cell survival rate (% @ 10 μM)
Response: 199.9

Prompt: Query (molecule): `N#CC(C#N)=NNc1ccc(-c2ncc(F)cn2)cc1` ; field requested: Cell survival rate (% @ 10 μM)
Response: 59

Prompt: Query (molecule): `COc1cc(-c2ncc(C)cn2)ccc1NN=C(C#N)C#N` ; field requested: Cell survival rate (% @ 10 μM)
Response: 126.8

Prompt: Query (molecule): `Cn1cc2ccc(NN=C(C#N)C#N)cc2n1` ; field requested: Cell survival rate (% @ 10 μM)
Response: 103.3
